target: GluA1 (Rattus norvegicus); construct: expressed in transfected cells; host or cells: HEK293T; assay: Whole-cell patch-clamp recording of homomeric GluA1 AMPAR expressed in HEK293T cells; assay type: cell-based; settings: normalized peak current, -60 mV, pH 7.4, 22 °C, read-out: IC50
pIC50: −log10 of the molar value.
Measured quantity: pIC50

Known pIC50 results, listed for orientation:
COc1cc(N)ccc1C1=NNC(=O)Cc2cc3c(cc21)OCO3 5.45
O=C1Cc2cc3c(cc2C(c2ccc([N+](=O)[O-])cc2F)=NN1)OCO3 5.24

A. Nc1ccc(C2=NNC(=O)Cc3cc4c(cc32)OCO4)c(F)c1
B. COc1cc([N+](=O)[O-])ccc1C1=NNC(=O)Cc2cc3c(cc21)OCO3
Q. Sorting by pIC50 in descending order, would A or B appear first? Indicate which entry you chose by stating its label.
A. A

* * *

molecular target: GluA2/3 (Rattus norvegicus, UniProt P19491+P19492); construct: expressed in transfected cells; host or cells: HEK293T; test: Whole-cell patch-clamp recording of heteromeric GluA2/3 AMPAR expressed in HEK293T cells; format: cell-based; conditions: washout/recovery, glutamate alone after compound, n=8
Sequence (P19492 23-888 isoform P19492-2 limits assumed, one chain of several): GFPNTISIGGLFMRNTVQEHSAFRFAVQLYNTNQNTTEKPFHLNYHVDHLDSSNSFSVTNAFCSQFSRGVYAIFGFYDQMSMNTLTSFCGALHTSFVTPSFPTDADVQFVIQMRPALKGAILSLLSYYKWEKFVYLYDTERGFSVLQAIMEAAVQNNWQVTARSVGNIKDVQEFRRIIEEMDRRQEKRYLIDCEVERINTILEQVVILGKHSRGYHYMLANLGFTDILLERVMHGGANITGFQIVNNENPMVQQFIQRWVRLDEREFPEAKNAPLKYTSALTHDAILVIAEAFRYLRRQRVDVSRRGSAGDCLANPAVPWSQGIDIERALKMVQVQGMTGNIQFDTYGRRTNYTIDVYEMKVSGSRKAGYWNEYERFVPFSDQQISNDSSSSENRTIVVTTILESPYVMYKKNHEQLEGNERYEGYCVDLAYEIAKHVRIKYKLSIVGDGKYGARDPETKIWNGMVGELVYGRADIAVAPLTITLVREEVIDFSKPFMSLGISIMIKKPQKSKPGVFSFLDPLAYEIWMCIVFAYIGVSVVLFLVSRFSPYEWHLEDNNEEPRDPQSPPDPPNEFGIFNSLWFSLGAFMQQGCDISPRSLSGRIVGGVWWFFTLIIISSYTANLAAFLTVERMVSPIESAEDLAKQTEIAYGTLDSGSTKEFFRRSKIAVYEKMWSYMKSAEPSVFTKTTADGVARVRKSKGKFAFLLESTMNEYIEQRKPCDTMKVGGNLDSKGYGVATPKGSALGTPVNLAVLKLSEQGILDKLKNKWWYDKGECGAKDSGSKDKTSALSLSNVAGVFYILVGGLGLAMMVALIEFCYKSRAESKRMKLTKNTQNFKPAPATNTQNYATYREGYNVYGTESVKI
Measured quantity: Amplitude, applying glutamate alone after compound (pA)

O=C1Cc2cc3c(cc2C(c2ccc([N+](=O)[O-])cc2F)=NN1)OCO3 525
Nc1ccc(C2=NNC(=O)Cc3cc4c(cc32)OCO4)c(F)c1 589
COc1cc(N)ccc1C1=NNC(=O)Cc2cc3c(cc21)OCO3 532
COc1cc([N+](=O)[O-])ccc1C1=NNC(=O)Cc2cc3c(cc21)OCO3 516

* * *

target: GluA1 (Rattus norvegicus); construct: expressed in transfected cells; host or cells: HEK293T; assay: Whole-cell patch-clamp recording of homomeric GluA1 AMPAR expressed in HEK293T cells; type: cell-based; conditions: washout/recovery, glutamate alone after compound, n=8
Measured quantity: Amplitude, applying glutamate alone after compound (pA)

Compound	Units	Result value
Nc1ccc(C2=NNC(=O)Cc3cc4c(cc32)OCO4)c(F)c1 [2,3-BDZ-1]	pA	935
O=C1Cc2cc3c(cc2C(c2ccc([N+](=O)[O-])cc2F)=NN1)OCO3 [2,3-BDZ-3]	pA	936
COc1cc([N+](=O)[O-])ccc1C1=NNC(=O)Cc2cc3c(cc21)OCO3 [2,3-BDZ-4]	pA	942
COc1cc(N)ccc1C1=NNC(=O)Cc2cc3c(cc21)OCO3 [2,3-BDZ-2]	pA	914

* * *

molecular target: GluA1/2 (Rattus norvegicus, UniProt P19490+P19491); construct: expressed in transfected cells; host or cells: HEK293T; assay: Whole-cell patch-clamp recording of heteromeric GluA1/2 AMPAR expressed in HEK293T cells; type: cell-based; settings: 10 mM glutamate, 16 µM compound, n=8
Sequence (P19490 19-907 isoform P19490-2 limits assumed): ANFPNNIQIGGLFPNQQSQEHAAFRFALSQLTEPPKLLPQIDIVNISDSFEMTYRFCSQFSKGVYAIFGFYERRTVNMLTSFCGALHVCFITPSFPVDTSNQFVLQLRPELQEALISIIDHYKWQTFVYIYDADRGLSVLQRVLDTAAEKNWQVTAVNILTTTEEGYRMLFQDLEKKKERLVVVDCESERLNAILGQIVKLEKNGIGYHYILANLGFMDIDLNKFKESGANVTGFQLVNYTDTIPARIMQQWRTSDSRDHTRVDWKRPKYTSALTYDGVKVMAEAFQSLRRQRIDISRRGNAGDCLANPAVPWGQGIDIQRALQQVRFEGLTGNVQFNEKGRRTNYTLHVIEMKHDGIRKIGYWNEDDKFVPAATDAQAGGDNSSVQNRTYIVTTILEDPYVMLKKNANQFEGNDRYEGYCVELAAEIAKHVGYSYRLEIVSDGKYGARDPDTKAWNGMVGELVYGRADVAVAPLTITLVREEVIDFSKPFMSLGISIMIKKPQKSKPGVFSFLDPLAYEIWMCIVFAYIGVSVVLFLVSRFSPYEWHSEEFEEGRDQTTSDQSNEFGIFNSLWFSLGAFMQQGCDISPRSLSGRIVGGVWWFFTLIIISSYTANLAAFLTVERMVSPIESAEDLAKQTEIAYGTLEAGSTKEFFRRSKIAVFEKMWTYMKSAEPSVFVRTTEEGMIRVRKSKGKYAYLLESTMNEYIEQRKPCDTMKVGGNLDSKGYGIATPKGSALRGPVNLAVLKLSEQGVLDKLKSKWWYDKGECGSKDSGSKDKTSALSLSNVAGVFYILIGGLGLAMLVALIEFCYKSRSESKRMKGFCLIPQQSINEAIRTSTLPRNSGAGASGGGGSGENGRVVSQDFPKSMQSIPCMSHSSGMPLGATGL
Sequence (P19491 22-883 isoform P19491-2 limits assumed): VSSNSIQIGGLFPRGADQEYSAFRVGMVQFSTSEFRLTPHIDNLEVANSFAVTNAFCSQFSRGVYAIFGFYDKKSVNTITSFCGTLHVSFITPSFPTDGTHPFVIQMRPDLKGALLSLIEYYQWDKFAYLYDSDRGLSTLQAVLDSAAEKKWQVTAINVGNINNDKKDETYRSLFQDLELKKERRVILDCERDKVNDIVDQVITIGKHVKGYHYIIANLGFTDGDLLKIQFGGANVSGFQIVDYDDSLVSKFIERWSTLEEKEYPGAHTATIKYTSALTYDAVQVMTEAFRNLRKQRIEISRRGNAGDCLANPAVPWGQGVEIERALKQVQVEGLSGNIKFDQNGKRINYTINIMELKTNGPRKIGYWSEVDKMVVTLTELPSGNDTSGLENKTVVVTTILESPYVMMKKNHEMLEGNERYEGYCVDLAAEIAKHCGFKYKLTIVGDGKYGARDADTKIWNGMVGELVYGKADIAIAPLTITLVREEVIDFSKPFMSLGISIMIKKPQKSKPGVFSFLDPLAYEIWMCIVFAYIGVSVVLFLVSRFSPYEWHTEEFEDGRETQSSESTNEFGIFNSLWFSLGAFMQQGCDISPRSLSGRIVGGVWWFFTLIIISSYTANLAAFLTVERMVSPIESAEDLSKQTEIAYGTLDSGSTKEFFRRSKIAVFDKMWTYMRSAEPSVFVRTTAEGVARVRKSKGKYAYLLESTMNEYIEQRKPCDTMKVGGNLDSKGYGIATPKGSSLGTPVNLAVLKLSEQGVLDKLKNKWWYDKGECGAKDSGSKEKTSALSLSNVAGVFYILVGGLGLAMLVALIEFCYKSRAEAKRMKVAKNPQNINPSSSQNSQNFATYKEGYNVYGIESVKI
Measured quantity: A/AI (current amplitude ratio without/with compound)

Known A/AI (current amplitude ratio without/with compound) results, listed for orientation:
Compound	Result value
Nc1ccc(C2=NNC(=O)Cc3cc4c(cc32)OCO4)c(F)c1 [2,3-BDZ-1]	11.21
COc1cc([N+](=O)[O-])ccc1C1=NNC(=O)Cc2cc3c(cc21)OCO3 [2,3-BDZ-4]	3.44

1. COc1cc(N)ccc1C1=NNC(=O)Cc2cc3c(cc21)OCO3 [2,3-BDZ-2]
2. O=C1Cc2cc3c(cc2C(c2ccc([N+](=O)[O-])cc2F)=NN1)OCO3 [2,3-BDZ-3]
Q. Sorting by A/AI (current amplitude ratio without/with compound) in descending order, would 1 or 2 appear first? Indicate which entry you chose by stating its label.
A. 1
(1: 9.91, 2: 3.98)

* * *

target: GluA1 (Rattus norvegicus, UniProt P19490); construct: expressed in transfected cells; host or cells: HEK293T; assay: Whole-cell patch-clamp recording of homomeric GluA1 AMPAR expressed in HEK293T cells; format: cell-based; details: 500 ms 10 mM glutamate + 16 µM compound, n=8
Quick reference: t des (weighted desensitization time constant) of the listed items.
The answer is to be given in ms; state only the numeric part.

Known t des (weighted desensitization time constant) results, listed for orientation:
COc1cc([N+](=O)[O-])ccc1C1=NNC(=O)Cc2cc3c(cc21)OCO3 2.2
O=C1Cc2cc3c(cc2C(c2ccc([N+](=O)[O-])cc2F)=NN1)OCO3 2.1

Quick note, t des (weighted desensitization time constant) for `COc1cc(N)ccc1C1=NNC(=O)Cc2cc3c(cc21)OCO3` landed at 1.8

Quick note, t des (weighted desensitization time constant) for `Nc1ccc(C2=NNC(=O)Cc3cc4c(cc32)OCO4)c(F)c1` landed at 1.1

* * *

target: GluA1/2 (Rattus norvegicus, UniProt P19490+P19491); construct: expressed in transfected cells; host or cells: HEK293T; assay: Whole-cell patch-clamp recording of heteromeric GluA1/2 AMPAR expressed in HEK293T cells; format: cell-based; settings: log of IC50, read-out: Log IC50 (converted)
Measured quantity: IC50 (µM)

Known IC50 results, listed for orientation:
COc1cc(N)ccc1C1=NNC(=O)Cc2cc3c(cc21)OCO3 3.39
O=C1Cc2cc3c(cc2C(c2ccc([N+](=O)[O-])cc2F)=NN1)OCO3 5.75

a. COc1cc([N+](=O)[O-])ccc1C1=NNC(=O)Cc2cc3c(cc21)OCO3
b. Nc1ccc(C2=NNC(=O)Cc3cc4c(cc32)OCO4)c(F)c1
Q. Sorting by IC50 in descending order, would a or b appear first? Indicate which entry you chose by stating its label.
A. a

* * *

Quick reference: t des (weighted desensitization time constant) of the listed items.
target: GluA2/3 (Rattus norvegicus, UniProt P19491+P19492); construct: expressed in transfected cells; host or cells: HEK293T; assay: Whole-cell patch-clamp recording of heteromeric GluA2/3 AMPAR expressed in HEK293T cells; format: cell-based; settings: 500 ms 10 mM glutamate + 16 µM compound, n=8
The answer is to be given in ms; state only the numeric part.

Known t des (weighted desensitization time constant) results, listed for orientation:
Compound	Units	Result value
COc1cc(N)ccc1C1=NNC(=O)Cc2cc3c(cc21)OCO3 [2,3-BDZ-2]	ms	1.7
O=C1Cc2cc3c(cc2C(c2ccc([N+](=O)[O-])cc2F)=NN1)OCO3 [2,3-BDZ-3]	ms	2.5
Nc1ccc(C2=NNC(=O)Cc3cc4c(cc32)OCO4)c(F)c1 [2,3-BDZ-1]	ms	0.8

Read the next record carefully.
Quick note, t des (weighted desensitization time constant) for COc1cc([N+](=O)[O-])ccc1C1=NNC(=O)Cc2cc3c(cc21)OCO3 [2,3-BDZ-4] landed at 2.6

* * *

biological target: GluA2 (Rattus norvegicus, UniProt P19491); construct: expressed in transfected cells; host or cells: HEK293T; assay: Whole-cell patch-clamp recording of homomeric GluA2 AMPAR expressed in HEK293T cells; format: cell-based; settings: 10 mM glutamate + 16 µM compound, -60 mV, pH 7.4, 22 °C, mean±SEM, n=8
Measured quantity: Amplitude with compound (pA)

COc1cc([N+](=O)[O-])ccc1C1=NNC(=O)Cc2cc3c(cc21)OCO3 364

A. O=C1Cc2cc3c(cc2C(c2ccc([N+](=O)[O-])cc2F)=NN1)OCO3
B. Nc1ccc(C2=NNC(=O)Cc3cc4c(cc32)OCO4)c(F)c1
Q. Sorting by Amplitude with compound in descending order, would A or B appear first? Indicate which entry you chose by stating its label.
A. A

* * *

biological target: GluA1 (Rattus norvegicus, UniProt P19490); construct: expressed in transfected cells; host or cells: HEK293T; experiment: Whole-cell patch-clamp recording of homomeric GluA1 AMPAR expressed in HEK293T cells; assay type: cell-based; details: log of IC50, read-out: Log IC50 (converted)
Measured quantity: IC50 (µM)

Known IC50 results, listed for orientation:
COc1cc(N)ccc1C1=NNC(=O)Cc2cc3c(cc21)OCO3 3.47
O=C1Cc2cc3c(cc2C(c2ccc([N+](=O)[O-])cc2F)=NN1)OCO3 5.75

a. COc1cc([N+](=O)[O-])ccc1C1=NNC(=O)Cc2cc3c(cc21)OCO3
b. Nc1ccc(C2=NNC(=O)Cc3cc4c(cc32)OCO4)c(F)c1
Q. // which entry reports the smaller IC50, a or b ? Indicate which entry you chose by stating its label.
A. b
(b: 3.24 µM, a: 6.76 µM)

* * *

biological target: GluA2 (Rattus norvegicus, UniProt P19491); construct: expressed in transfected cells; host or cells: HEK293T; experiment: Whole-cell patch-clamp recording of homomeric GluA2 AMPAR expressed in HEK293T cells; assay type: cell-based; details: log of IC50, read-out: Log IC50 (converted)
Measured quantity: IC50 (µM)

O=C1Cc2cc3c(cc2C(c2ccc([N+](=O)[O-])cc2F)=NN1)OCO3 5.75
COc1cc(N)ccc1C1=NNC(=O)Cc2cc3c(cc21)OCO3 3.39

I. COc1cc([N+](=O)[O-])ccc1C1=NNC(=O)Cc2cc3c(cc21)OCO3
II. Nc1ccc(C2=NNC(=O)Cc3cc4c(cc32)OCO4)c(F)c1
Q. Sorting by IC50 in descending order, would I or II appear first? Indicate which entry you chose by stating its label.
A. I
(I: 6.76 µM, II: 3.02 µM)
